# target_or_test_system: Adenosylhomocysteinase (Bos taurus) (UniProt Q3MHL4)
# Sequence (Q3MHL4 whole entry, looked up): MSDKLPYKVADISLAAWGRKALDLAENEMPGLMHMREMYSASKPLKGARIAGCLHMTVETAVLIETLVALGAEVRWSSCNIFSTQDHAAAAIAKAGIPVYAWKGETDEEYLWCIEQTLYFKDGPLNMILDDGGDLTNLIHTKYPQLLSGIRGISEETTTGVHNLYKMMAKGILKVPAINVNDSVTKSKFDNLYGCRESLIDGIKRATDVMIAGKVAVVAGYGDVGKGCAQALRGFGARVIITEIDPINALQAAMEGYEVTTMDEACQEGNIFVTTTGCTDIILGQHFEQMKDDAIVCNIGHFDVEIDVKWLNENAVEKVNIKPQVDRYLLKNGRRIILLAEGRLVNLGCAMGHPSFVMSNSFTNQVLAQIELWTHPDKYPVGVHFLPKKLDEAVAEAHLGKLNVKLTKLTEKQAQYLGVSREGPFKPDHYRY
# experiment_notes: Evaluated for the inhibition of bovine liver S-adenosyl-homocysteine hydrolase at concentration 2.0 mM
endpoint_label: inhibition (%)
# unit: % | format: bare number

// sample Nc1nccc2c1ncn2C(CO)CCCO (centres undefined) , its inhibition was 50

// sample Nc1nccc2c1ncn2CCCCO , its inhibition was 12

// sample Nc1nccc2c1ncn2CCO , its inhibition was 27

// sample Nc1nccc2c1ncn2CC(O)CO (centres undefined) , its inhibition was 95
